Each recorded value in this set is attributed to the OligoGym collection.

- TARGET: RAF1; also: test concentration or dose not given here
- RUN_CONDITIONS: ASO
These antisense oligonucleotides have a phosphorothioate backbone; sugars and methylation of C are not fully specified.
Binary call on remaining target (mRNA or protein) (fraction of control) with cut-off 0.9: strictly below means T, and equality or higher means F.

sequence_data=CTGATTTCCAAAATCCCATG label=T
sequence_data=TCTGGCGCTGCACCACTCTC label=T
sequence_data=GCTCCTGGAAGACAAAATTC label=T
sequence_data=CTGAGAGGGCTGAGATGCGG label=F
sequence_data=CGGGAGGCGGTCACATTCGG label=T

In plain terms, does CAGCACTGCAAATGGCTTCC come in under 0.9 for remaining target (mRNA or protein) (fraction of control)? T

Same read-out for TGTAGCCAACAGCTGGGGCT ? F

Another sequence to look at: CTGGGCTGTTTGGTGCCTTA T

Also need TGTGACTAGAGAAACAAGGC , thanks. T

Cool, now GCCGAGTGCCTTGCCTGGAA F

Can you handle ACCATCAACATCCACTTGCG next? F

Moving on to the next sequence: TTCGGCGGCAGCTTCTCGCC T

// same read-out, input: GATGCAGCTTAAACAATTCT F
